src = paper PMC8201677

assay: Pharmacokinetics in rats after oral administration; type: in vivo; conditions: male, Sprague-Dawley, rat, single dose 30 mg/kg calycosin, plasma

compound: COc1ccc(-c2coc3cc(O)ccc3c2=O)cc1O [calycosin]
result.unit: ng·h/mL
AUC(0-inf): 421

###

assay: Pharmacokinetics in rats after oral administration; type: in vivo; conditions: male, Sprague-Dawley, rat, single dose 30 mg/kg calycosin, plasma

compound.structure.string: COc1ccc(-c2coc3cc(O)ccc3c2=O)cc1O
half-life (h): 6.98

###

experiment: Pharmacokinetics in rats after oral administration; assay type: in vivo; details: male, Sprague-Dawley, rat, single dose 30 mg/kg calycosin, plasma

compound.structure.string: COc1ccc(-c2coc3cc(O)ccc3c2=O)cc1O
Tmax / min: 11.4
